Target: Receptor tyrosine-protein kinase erbB-2 (Homo sapiens, UniProt P04626)
Sequence (P04626 whole entry): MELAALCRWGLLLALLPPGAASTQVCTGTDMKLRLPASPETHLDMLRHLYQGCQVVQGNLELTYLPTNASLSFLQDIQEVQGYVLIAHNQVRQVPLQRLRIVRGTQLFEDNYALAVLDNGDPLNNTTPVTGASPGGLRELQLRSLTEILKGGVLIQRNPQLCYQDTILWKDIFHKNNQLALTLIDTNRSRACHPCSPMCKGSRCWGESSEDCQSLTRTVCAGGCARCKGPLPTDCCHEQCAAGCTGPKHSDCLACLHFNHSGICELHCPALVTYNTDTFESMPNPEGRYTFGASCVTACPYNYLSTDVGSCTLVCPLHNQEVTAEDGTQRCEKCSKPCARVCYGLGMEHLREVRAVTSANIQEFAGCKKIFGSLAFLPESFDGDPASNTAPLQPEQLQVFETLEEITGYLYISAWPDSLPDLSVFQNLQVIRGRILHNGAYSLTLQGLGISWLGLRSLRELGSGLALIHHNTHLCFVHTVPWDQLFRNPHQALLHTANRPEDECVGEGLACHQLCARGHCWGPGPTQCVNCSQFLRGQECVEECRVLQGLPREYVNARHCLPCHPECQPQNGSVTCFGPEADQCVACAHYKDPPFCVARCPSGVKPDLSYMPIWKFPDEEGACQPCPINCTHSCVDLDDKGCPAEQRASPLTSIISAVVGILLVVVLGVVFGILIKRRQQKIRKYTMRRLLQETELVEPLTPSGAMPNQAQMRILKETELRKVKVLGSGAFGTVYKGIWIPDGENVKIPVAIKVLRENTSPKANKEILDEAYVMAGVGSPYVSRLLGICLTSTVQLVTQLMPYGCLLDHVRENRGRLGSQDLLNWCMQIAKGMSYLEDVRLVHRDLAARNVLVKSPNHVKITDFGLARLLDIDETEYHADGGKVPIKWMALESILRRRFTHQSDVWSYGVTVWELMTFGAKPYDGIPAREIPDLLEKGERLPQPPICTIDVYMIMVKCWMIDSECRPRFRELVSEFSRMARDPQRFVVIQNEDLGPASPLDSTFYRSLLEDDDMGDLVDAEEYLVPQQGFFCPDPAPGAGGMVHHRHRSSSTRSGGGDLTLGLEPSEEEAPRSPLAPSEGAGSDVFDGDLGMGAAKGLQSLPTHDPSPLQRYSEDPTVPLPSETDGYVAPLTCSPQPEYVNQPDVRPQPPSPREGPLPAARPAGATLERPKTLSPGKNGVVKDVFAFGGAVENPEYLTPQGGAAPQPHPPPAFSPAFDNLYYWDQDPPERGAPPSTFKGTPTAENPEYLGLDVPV
Assay: Inhibition of ERBb2 by HTRF assay
pIC50: −log10 of the molar value.
ASSAY_METRIC: pIC50

For orientation, consider the following solved cases.
SUBSTANCE_SMILES	OBSERVED_VALUE
CCN(C)C(=O)O[C@H]1CN[C@H](C#Cc2cc3ncnc(Nc4ccc(OCc5cccc(F)c5)c(Cl)c4)c3s2)C1	7.49
NC(=O)O[C@H]1CN[C@H](C#Cc2cc3ncnc(Nc4ccc(OCc5cccc(F)c5)c(Cl)c4)c3s2)C1	7.80

(1) CS(=O)(=O)CCNC(=O)O[C@H]1CN[C@H](C#Cc2cc3ncnc(Nc4ccc(OCc5cccc(F)c5)c(Cl)c4)c3s2)C1
(2) O=C(O[C@H]1CN[C@H](C#Cc2cc3ncnc(Nc4ccc(OCc5cccc(F)c5)c(Cl)c4)c3s2)C1)N1CCNCC1
Would you kindly point out which of 1 and 2 has the smaller pIC50 figure? Answer by quoting the chosen item's label. 1
